Tested on: Noggin (protein binding on small-molecule microarray)
Assay: Noggin binders on small-molecule microarray, primary screen, biochemical, 635/667 nm fluorescence (AID 1095);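 further: score merges 667 nm feature fluorescence with signal to noise over triplicate slides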
Conditions: 635 nm fluorescence, higher = more signal
Decision: composite z-score compared against 0.3; not below it gives Criterion met, below it gives Criterion not met.

Q: Test whether the compound `COC(=O)[C@@]1(Cc2ccc(OC)cc2)[C@H]2c3cc(C(=O)N(C)C)n(Cc4cccc5ccccc45)c3C[C@H]2CN1C(=O)c1ccccc1` records composite z-score of 0.3 or higher.
Result: Criterion met

Q: Test whether the compound `COc1ccc(C(=O)Nc2ccc(CN3C(=O)[C@@]4(O[C@@H](CCn5cc([C@H](O)c6ccccc6)nn5)[C@H]([Si](C)(C)c5ccc(OC)cc5)[C@H]4C)c4ccccc43)cc2)cc1` records composite z-score of 0.3 or higher.
Result: Criterion met

Q: Test whether the compound COCCCNC(=O)C1N=C(c2ccc(OCCCO)cc2)N(c2ccccc2)O1 (centres undefined) records composite z-score of 0.3 or higher.
Result: Criterion met

Q: Test whether the compound `[N-]=[N+]=Nc1ccccc1[C@H]1OC(c2ccc(OCCCO)cc2)=N[C@@]1(Cc1ccccc1)C(=O)O` records composite z-score of 0.3 or higher.
Result: Criterion met

Q: Test whether the compound `C[N+](C)(C)CCCCNC(=O)[C@H]1C[C@H]2C(=O)N[C@@H](Cc3ccccc3)C(=O)N2[C@H]1c1ccc(O)cc1` records composite z-score of 0.3 or higher.
Result: Criterion met

Q: Test whether the compound `C=CCNC(=O)[C@H]1[C@@H]2C(=O)O[C@@H](c3ccccc3)[C@@H](c3ccccc3)N2[C@@H](c2ccc(OCCO)cc2)[C@]12C(=O)Nc1ccc(C#CC3=CCCCC3)cc12` records composite z-score of 0.3 or higher.
Result: Criterion met

Q: Test whether the compound `CCCC=C(CCC)[C@@H](NS(=O)(=O)c1cccs1)c1ccc(C(=O)OC)cc1` records composite z-score of 0.3 or higher.
Result: Criterion not met

Q: Test whether the compound O=C1C2C=CC(C(O)C(c3ccccc3)c3ccccc3)N(n3cnnc3)C2C(=O)N1Cc1ccccc1 (centres undefined) records composite z-score of 0.3 or higher.
Result: Criterion met

Q: Test whether the compound CC(=O)n1cc(C(O)C2C=CC3C(=O)N(C)C(=O)C3N2Nc2ccccc2)c2ccccc21 (centres undefined) records composite z-score of 0.3 or higher.
Result: Criterion met

Q: Test whether the compound `O=C1c2ccccc2[C@@]2(Cc3ccccc3N(CCN3CCOCC3)C2=O)[C@H](c2ccc(CO)cc2)N1Cc1ccccc1` records composite z-score of 0.3 or higher.
Result: Criterion not met

Q: Test whether the compound `CN(C)C(=O)[C@]1(Cc2ccccc2N=[N+]=[N-])N=C(c2ccc(OCCCO)cc2)O[C@@H]1c1ccccc1` records composite z-score of 0.3 or higher.
Result: Criterion met

Q: Test whether the compound N#Cc1ccc(NN2C(C(O)c3c(F)cccc3Cl)C=CC3C(=O)N(c4ccccc4)C(=O)C32)cc1 (centres undefined) records composite z-score of 0.3 or higher.
Result: Criterion not met

Q: Test whether the compound `COc1ccc(CCN2C(=O)[C@@]3(Cc4ccccc42)c2ccccc2C(=O)N(Cc2ccccc2C(F)(F)F)[C@H]3c2ccc(CO)cc2)cc1` records composite z-score of 0.3 or higher.
Result: Criterion met

Q: Test whether the compound `C=CCN1C(=O)[C@@]2(O[C@@H](CCO)[C@H]([Si](C)(C)c3ccc(OC)cc3)[C@H]2C)c2cc(NC(=O)c3ccc(OC)cc3)ccc21` records composite z-score of 0.3 or higher.
Result: Criterion met

Q: Test whether the compound `C=C(COC)/C(=C/C[C@@H](OC(C)=O)c1ccc(OCCO)cc1)c1cc(C(=O)OC)ccc1OC` records composite z-score of 0.3 or higher.
Result: Criterion met

Q: Test whether the compound `COCCOC(=O)N1C(=O)[C@@]2(c3cc(C#Cc4ccc(OC)cc4)ccc31)[C@H](C(N)=O)[C@H]1C(=O)O[C@H](c3ccccc3)[C@H](c3ccccc3)N1[C@@H]2c1ccccc1OCCO` records composite z-score of 0.3 or higher.
Result: Criterion met

Q: Test whether the compound CN1C(=O)C2C=CC(C(O)c3cc(C(F)(F)F)cc(C(F)(F)F)c3)N(N3CCCCC3)C2C1=O (centres undefined) records composite z-score of 0.3 or higher.
Result: Criterion not met

Q: Test whether the compound CN1C(=O)C2C=CC(C(O)c3ccc(I)cc3)N(N3CCCCC3)C2C1=O (centres undefined) records composite z-score of 0.3 or higher.
Result: Criterion not met

Q: Test whether the compound `CC(C)(C)C(=O)N[C@@H](c1ccc(Cl)cc1)[C@]1(C)C[C@H]1C1CCCCC1` records composite z-score of 0.3 or higher.
Result: Criterion not met

Q: Test whether the compound O=C1OCCC/C=C\[C@H]2OC34C=CCN(Cn5nnc6ccccc65)C(=O)[C@H]3N(CCCCCCO)C(=O)[C@@H]4C12 (some centres undefined) records composite z-score of 0.3 or higher.
Result: Criterion not met

Q: Test whether the compound CN1C(=O)C2C=CC(C(O)c3ccc(-c4ccccc4)s3)N(N(c3ccccc3)c3ccccc3)C2C1=O (centres undefined) records composite z-score of 0.3 or higher.
Result: Criterion not met

Q: Test whether the compound `C#CCNC(=O)[C@H](Cc1ccccc1)NC(=O)CCC(=O)O` records composite z-score of 0.3 or higher.
Result: Criterion not met

Q: Test whether the compound CCCCN1CC=CC23O[C@@H]4/C=C\CCC(C)OC(=O)C4[C@H]2C(=O)N(CCCCCO)[C@@H]3C1=O (some centres undefined) records composite z-score of 0.3 or higher.
Result: Criterion not met

Q: Test whether the compound `COc1ccc([Si](C)(C)[C@H]2[C@H](CCn3cc([C@H](O)c4ccccc4)nn3)O[C@@]3(C(=O)N(Cc4cccc(N5CCOC5=O)c4)c4ccccc43)[C@@H]2C)cc1` records composite z-score of 0.3 or higher.
Result: Criterion met

Q: Test whether the compound `O=C1O[C@H](c2ccccc2)[C@H](c2ccccc2)N2[C@H]1[C@@H](C(=O)Nc1nc3ccccc3s1)[C@]1(C(=O)Nc3ccc(C#CCCO)cc31)[C@H]2c1ccc(OCCO)cc1` records composite z-score of 0.3 or higher.
Result: Criterion met

Q: Test whether the compound `COC(=O)[C@@]1(Cc2ccc(F)cc2)[C@H]2c3cc(C(=O)N4CCCC4)n(Cc4cc(C)n(C)n4)c3C[C@H]2CN1C(=O)c1ccccc1` records composite z-score of 0.3 or higher.
Result: Criterion not met

Q: Test whether the compound `O=C1O[C@H](c2ccccc2)[C@H](c2ccccc2)N2[C@H]1[C@@H](C(=O)N1CCN(c3ncccn3)CC1)[C@]1(C(=O)Nc3ccc(C#CC4=CCCCC4)cc31)[C@H]2c1ccc(O)cc1` records composite z-score of 0.3 or higher.
Result: Criterion met

Q: Test whether the compound `COCCOC(=O)N1C(=O)[C@@]2(c3cc(C#CC4=CCCCC4)ccc31)[C@H](C(N)=O)[C@H]1C(=O)O[C@H](c3ccccc3)[C@H](c3ccccc3)N1[C@@H]2c1ccc(OCCO)cc1` records composite z-score of 0.3 or higher.
Result: Criterion met

Q: Test whether the compound `CN(C)C(=O)[C@]1(Cc2ccccc2CN=[N+]=[N-])N=C(c2ccc(OCCCO)cc2)O[C@@H]1c1ccccc1CN=[N+]=[N-]` records composite z-score of 0.3 or higher.
Result: Criterion met
